# Experiment description: DRUGMATRIX: Sodium/nucleoside co-transporter radioligand binding (ligand: nitrobenzylthioinosine)
# Type: cell membranes, Cavia porcellus, Dunkin-Hartley, Cerebral cortex, Membrane
# Reported conditions: Not Active = under 50% inhibition at 10 µM
Quantity kind: Ki

Worked examples follow.
Molecule	Ki
CC(C)(C)NC(=O)[C@@H]1C[C@@H]2CCCC[C@@H]2CN1C[C@@H](O)[C@H](Cc1ccccc1)NC(=O)[C@H](CC(N)=O)NC(=O)c1ccc2ccccc2n1	Not Active
NC1=NC(=O)C(c2ccccc2)O1 (stereo not given) [PEMOLINE]	Not Active
CC(=O)[C@@]1(O)CC[C@H]2[C@@H]3C[C@H](C)C4=CC(=O)CC[C@]4(C)[C@H]3CC[C@@]21C	Not Active
CN(C)CCCN1c2ccccc2Sc2ccccc21 [PROMAZINE]	Not Active

// moving on: another record for Ki
Fill in: Ki of CO[C@H]1/C=C/O[C@@]2(C)Oc3c(C)c(O)c4c(O)c(c(/C=N/N5CCN(C)CC5)c(O)c4c3C2=O)NC(=O)/C(C)=C\C=C\[C@H](C)[C@H](O)[C@@H](C)[C@@H](O)[C@@H](C)[C@H](OC(C)=O)[C@@H]1C [RIFAMPIN] is ___
Not Active
